Each record here notes measured pest or weed control at 250 µg/mL.
# Tested on: Phytophthora infestans
# PROTOCOL DETAILS: whole plant or invertebrate
# Format: in vivo
# MEASUREMENT PARAMETERS: Phytophthora infestans, in Solanum lycopersicum, topical, read-out: Test F control value
OBSERVED PROPERTY: pest or weed control at 250 µg/mL

[[record]]
molecule = "CCn1c(-c2c(F)cccc2F)c(C(C)(OC)C(C)C)cc(Cl)c1=O (centres unmarked)"
target_or_system = "Phytophthora infestans"
result = "< 50%"

[[record]]
molecule = "CCn1c(-c2ccc(F)cc2Cl)c(C=C(C)C)cc(Cl)c1=O"
target_or_system = "Phytophthora infestans"
result = "< 50%"

[[record]]
molecule = "CCn1c(-c2c(F)cc(F)cc2F)c(C=O)cc(Cl)c1=O"
target_or_system = "Phytophthora infestans"
result = "< 50%"

[[record]]
molecule = "CCCc1cc(Br)c(=O)n(C)c1-c1ccc(F)cc1Cl"
target_or_system = "Phytophthora infestans"
result = "< 50%"

[[record]]
molecule = "CCCc1cc(C)c(=O)n(C)c1-c1ccc(F)cc1Cl"
target_or_system = "Phytophthora infestans"
result = "< 50%"


* * *

pest or weed control at 250 ppm values by entry
# Tested on: Colletotrichum orbiculare
# PROTOCOL DETAILS: Test Example H: Anthracnose on cucumber
# MEASUREMENT PARAMETERS: Colletotrichum orbiculare, in Cucumis sativus, topical, read-out: Test H control value class
OBSERVED PROPERTY: pest or weed control at 250 ppm

[[record]]
compound = "CCn1c(-c2c(F)cccc2F)c(C(C)(F)CC)cc(Cl)c1=O (centres unmarked)"
observed_property = "pest or weed control at 250 ppm"
result = "> 50%"

[[record]]
compound = "CCn1c(-c2c(F)cc(F)cc2F)c(C(C)C)ccc1=O"
observed_property = "pest or weed control at 250 ppm"
result = "> 50%"

[[record]]
compound = "CCC(O)c1cc(Cl)c(=O)n(CC)c1-c1c(F)cccc1F (centres unmarked)"
observed_property = "pest or weed control at 250 ppm"
result = "> 50%"

[[record]]
compound = "CCn1c(-c2c(F)cccc2F)c(C(C)(O)CC)cc(Cl)c1=O (centres unmarked)"
observed_property = "pest or weed control at 250 ppm"
result = "> 50%"

[[record]]
compound = "CCn1c(-c2c(F)cccc2F)c(C=O)cc(Cl)c1=O"
observed_property = "pest or weed control at 250 ppm"
result = "< 50%"

[[record]]
compound = "CCC(OC)c1cc(Cl)c(=O)n(CC)c1-c1c(F)cccc1F (centres unmarked)"
observed_property = "pest or weed control at 250 ppm"
result = "> 50%"

[[record]]
compound = "CCn1c(-c2c(F)cc(OC)cc2F)c(C(C)C)ccc1=O"
observed_property = "pest or weed control at 250 ppm"
result = "> 50%"

[[record]]
compound = "CCn1c(-c2c(F)cc(OC)cc2F)c(C(C)C)cc(Cl)c1=O"
observed_property = "pest or weed control at 250 ppm"
result = "> 50%"

[[record]]
compound = "CCn1c(-c2c(F)cccc2F)c(C(Br)Br)cc(Cl)c1=O"
observed_property = "pest or weed control at 250 ppm"
result = "< 50%"

[[record]]
compound = "CCn1c(-c2c(F)cc(F)cc2F)c(CN(C)OC)cc(Cl)c1=O"
observed_property = "pest or weed control at 250 ppm"
result = "> 50%"

[[record]]
compound = "CCn1c(-c2c(F)cc(F)cc2F)c(C(C)C)cc(Cl)c1=O"
observed_property = "pest or weed control at 250 ppm"
result = "> 50%"

[[record]]
compound = "CCn1c(-c2c(F)cccc2F)c(C(O)C(C)C)cc(Cl)c1=O (centres unmarked)"
observed_property = "pest or weed control at 250 ppm"
result = "> 50%"

[[record]]
compound = "CCOc1cc(F)c(-c2c(CN(C)OC)cc(Cl)c(=O)n2CC)c(F)c1"
observed_property = "pest or weed control at 250 ppm"
result = "> 50%"

[[record]]
compound = "CCn1c(-c2c(F)cccc2F)c(C)cc(Cl)c1=O"
observed_property = "pest or weed control at 250 ppm"
result = "> 50%"

[[record]]
compound = "CCn1c(-c2c(F)cccc2F)c(C(C)(CC)OC)cc(Cl)c1=O (centres unmarked)"
observed_property = "pest or weed control at 250 ppm"
result = "> 50%"

[[record]]
compound = "CCn1c(-c2ccc(F)cc2Cl)c(CC(C)C)cc(Cl)c1=O"
observed_property = "pest or weed control at 250 ppm"
result = "> 50%"

[[record]]
compound = "CCn1c(-c2c(F)cccc2F)c(C(C)(O)C(C)C)cc(Cl)c1=O (centres unmarked)"
observed_property = "pest or weed control at 250 ppm"
result = "> 50%"

[[record]]
compound = "CCC(=O)c1cc(Cl)c(=O)n(CC)c1-c1c(F)cccc1F"
observed_property = "pest or weed control at 250 ppm"
result = "> 50%"

[[record]]
compound = "CCn1c(-c2c(F)cccc2F)c(C)ccc1=O"
observed_property = "pest or weed control at 250 ppm"
result = "< 50%"

[[record]]
compound = "CCn1c(-c2ccc(F)cc2Cl)c(CC(C)C)ccc1=O"
observed_property = "pest or weed control at 250 ppm"
result = "< 50%"

